target: BaF3-ETV6-NTRK2 (Homo sapiens, UniProt Q16620); construct: fused on or other part: P41212 (Transcription factor ETV6); test: Cell proliferation inhibition, Ba/F3-TRKs stable strain (CCK-8); conditions: 72 hours, read-out: cell viability IC50 ETV6-NTRK2
Sequence (Q16620 538-822 limits assumed): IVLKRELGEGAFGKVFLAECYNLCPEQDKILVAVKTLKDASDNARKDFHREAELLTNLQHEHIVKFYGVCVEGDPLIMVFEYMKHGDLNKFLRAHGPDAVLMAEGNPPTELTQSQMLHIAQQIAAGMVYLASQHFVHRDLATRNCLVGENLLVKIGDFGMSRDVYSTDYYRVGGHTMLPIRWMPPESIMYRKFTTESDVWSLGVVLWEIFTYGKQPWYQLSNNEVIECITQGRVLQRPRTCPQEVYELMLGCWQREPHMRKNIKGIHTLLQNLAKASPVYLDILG
Measurement kind: IC50

>>> result("Cc1c(C#Cc2cnc3ccc(N4CCC(O)CC4)nn23)cccc1C(=O)Nc1cc(CN2CCN(C)CC2)cc(C(F)(F)F)c1 [XS3-81]")
"< 10 nM"
>>> result("Cc1c(C#Cc2cnc3cccnn23)cccc1C(=O)Nc1cc(CN2CCN(C)CC2)cc(C(F)(F)F)c1 [XS116]")
"100 to 1000 nM"
>>> result("Cc1c(C#Cc2cnc3ccc(N4CCC(N(C)C)CC4)nn23)cccc1C(=O)Nc1cccc(C(F)(F)F)c1 [XS3-57]")
"100 to 1000 nM"
>>> result("Cc1c(C#Cc2cnc3ccc(N4CCOCC4)nn23)cccc1C(=O)Nc1cc(F)cc(C(F)(F)F)c1 [XS4-80]")
"10 to 100 nM"
>>> result("Cc1c(C#Cc2cnc3ccc(N4CC[C@H](O)C4)nn23)cccc1C(=O)Nc1cc(Cl)cc(C(F)(F)F)c1 [XS3-58]")
"100 to 1000 nM"
>>> result("Cc1c(C#Cc2cnc3ccc(N4CCOCC4)nn23)cccc1C(=O)Nc1cc([N+](=O)[O-])cc(C(F)(F)F)c1 [XS4-77]")
"10 to 100 nM"
>>> result("Cc1cn(-c2cc(NC(=O)c3cccc(C#Cc4cnc5ccc(N6CCC(O)CC6)nn45)c3C)cc(C(F)(F)F)c2)cn1 [XS3-87]")
"10 to 100 nM"
>>> result("Cc1c(C#Cc2cnc3ccc(NCCCCO)nn23)cccc1C(=O)Nc1cc(Cl)cc(C(F)(F)F)c1 [XS3-139]")
"10 to 100 nM"
>>> result("Cc1c(C#Cc2cnc3ccc(N4CC[C@H](O)C4)nn23)cccc1C(=O)Nc1cccc(C(F)(F)F)c1 [XS3-35]")
"100 to 1000 nM"
>>> result("Cc1c(C#Cc2cnc3cccnn23)cccc1C(=O)Nc1cc(Cl)cc(C(F)(F)F)c1 [XS2-112]")
"100 to 1000 nM"
>>> result("Cc1c(C#Cc2cnc3ccc(N4CCC(N(C)C)CC4)nn23)cccc1C(=O)Nc1cc(CN2CCN(C)CC2)cc(C(F)(F)F)c1 [XS3-67]")
"100 to 1000 nM"
>>> result("Cc1c(C#Cc2cnc3ccc(N4CCN(C5COC5)CC4)nn23)cccc1C(=O)Nc1cc(Cl)cc(C(F)(F)F)c1 [XS3-138]")
"10 to 100 nM"

----------
molecular target: UniProtKB P16234; experiment: Kinase selectivity, Z'-LYTE
Sequence (P16234 24-1089, species assumed): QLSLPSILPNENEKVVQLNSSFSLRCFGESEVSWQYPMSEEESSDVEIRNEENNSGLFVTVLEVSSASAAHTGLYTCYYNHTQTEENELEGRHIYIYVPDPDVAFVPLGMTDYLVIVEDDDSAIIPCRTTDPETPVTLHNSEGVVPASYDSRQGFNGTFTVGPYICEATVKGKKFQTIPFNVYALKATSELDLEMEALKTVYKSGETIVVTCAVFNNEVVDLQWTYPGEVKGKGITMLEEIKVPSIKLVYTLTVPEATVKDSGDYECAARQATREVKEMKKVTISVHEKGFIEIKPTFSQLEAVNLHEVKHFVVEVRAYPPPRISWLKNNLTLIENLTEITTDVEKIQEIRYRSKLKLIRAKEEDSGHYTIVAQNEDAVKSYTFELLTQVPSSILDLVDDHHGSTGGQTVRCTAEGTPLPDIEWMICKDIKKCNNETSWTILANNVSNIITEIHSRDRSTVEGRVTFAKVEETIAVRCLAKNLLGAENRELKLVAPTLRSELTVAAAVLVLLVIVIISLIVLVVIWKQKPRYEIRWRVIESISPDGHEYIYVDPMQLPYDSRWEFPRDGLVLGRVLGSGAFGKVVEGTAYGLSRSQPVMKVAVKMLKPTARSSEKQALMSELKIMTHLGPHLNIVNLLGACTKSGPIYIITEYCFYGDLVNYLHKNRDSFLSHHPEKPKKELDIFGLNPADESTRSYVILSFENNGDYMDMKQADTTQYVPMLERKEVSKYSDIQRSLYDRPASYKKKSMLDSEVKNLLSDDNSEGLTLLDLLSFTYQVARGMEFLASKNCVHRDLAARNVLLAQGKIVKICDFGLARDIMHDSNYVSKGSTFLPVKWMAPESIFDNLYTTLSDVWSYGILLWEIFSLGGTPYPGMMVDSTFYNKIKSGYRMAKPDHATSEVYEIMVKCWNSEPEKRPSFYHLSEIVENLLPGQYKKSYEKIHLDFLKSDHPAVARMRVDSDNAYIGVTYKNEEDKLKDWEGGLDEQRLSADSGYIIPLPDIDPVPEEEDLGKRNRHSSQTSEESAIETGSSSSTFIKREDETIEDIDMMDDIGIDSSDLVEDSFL
Measurement kind: IC50 (nM)

>>> recorded_number("Cc1ccc(C(=O)Nc2cc(Cl)cc(C(F)(F)F)c2)cc1C#Cc1cnc2ccc(N3CCC(O)CC3)nn12 [XS4-128, reference compound]")
19.9

----------
Item-by-item account of pIC50
target: BaF3-CD74-NTRK1 (Homo sapiens, UniProt P04629); construct: fused on or other part: P04233 (HLA class II histocompatibility antigen gamma chain); experiment: Cell proliferation inhibition, Ba/F3-TRKs stable strain (CCK-8); conditions: 72 hours, read-out: cell viability IC50 CD74-NTRK1
Sequence (P04629 510-796 limits assumed): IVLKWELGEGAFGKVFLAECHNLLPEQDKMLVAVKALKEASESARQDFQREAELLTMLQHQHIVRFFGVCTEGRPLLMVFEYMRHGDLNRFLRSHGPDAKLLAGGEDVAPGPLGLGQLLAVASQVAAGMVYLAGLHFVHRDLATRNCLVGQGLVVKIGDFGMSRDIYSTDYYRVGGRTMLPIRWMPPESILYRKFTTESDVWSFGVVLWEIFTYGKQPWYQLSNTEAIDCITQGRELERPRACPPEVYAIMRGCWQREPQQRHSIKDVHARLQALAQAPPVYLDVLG
pIC50: −log10 of the molar value.
Measurement kind: pIC50

>>> result("Cc1c(C#Cc2cnc3ccc(N4CCC(N(C)C)CC4)nn23)cccc1C(=O)Nc1cccc(C(F)(F)F)c1 [XS3-57]")
"7.00 to 8.00"
>>> result("Cc1cc(NC(=O)c2cccc(C#Cc3cnc4ccc(N5CCOCC5)nn34)c2C)cc(C(F)(F)F)c1 [XS4-81]")
"7.00 to 8.00"
>>> result("Cc1c(C#Cc2cnc3ccc(N4CC[C@H](O)C4)nn23)cccc1C(=O)Nc1cccc(C(F)(F)F)c1 [XS3-35]")
"7.00 to 8.00"
>>> result("Cc1c(C#Cc2cnc3ccc(N4CCC(N(C)C)CC4)nn23)cccc1C(=O)Nc1cc(CN2CCN(C)CC2)cc(C(F)(F)F)c1 [XS3-67]")
"6.00 to 7.00"
>>> result("CC(=O)N1CCN(c2ccc3ncc(C#Cc4cccc(C(=O)Nc5cc(Cl)cc(C(F)(F)F)c5)c4C)n3n2)CC1 [XS3-54]")
"7.00 to 8.00"
>>> result("Cc1c(C#Cc2cnc3ccc(N4CCC(N5CCOCC5)CC4)nn23)cccc1C(=O)Nc1cc(Cl)cc(C(F)(F)F)c1 [XS3-130]")
"7.00 to 8.00"
>>> result("Cc1c(C#Cc2cnc3ccc(N4CCC(O)CC4)nn23)cccc1C(=O)Nc1cc(CN2CCN(C)CC2)cc(C(F)(F)F)c1 [XS3-81]")
"7.00 to 8.00"
>>> result("Cc1c(C#Cc2cnc3ccc(N4CCOCC4)nn23)cccc1C(=O)Nc1cc(Cl)cc(C(F)(F)F)c1 [XS3-61]")
"7.00 to 8.00"
>>> result("Cc1cn(-c2cc(NC(=O)c3cccc(C#Cc4cnc5ccc(N6CCC(O)CC6)nn45)c3C)cc(C(F)(F)F)c2)cn1 [XS3-87]")
"> 8.00"
>>> result("Cc1c(C#Cc2cnc3ccc(N4CCC(O)CC4)nn23)cccc1C(=O)Nc1cc(Cl)cc(C(F)(F)F)c1 [XS3-55]")
"7.00 to 8.00"
>>> result("Cc1c(C#Cc2cnc3ccc(NCCCCO)nn23)cccc1C(=O)Nc1cc(Cl)cc(C(F)(F)F)c1 [XS3-139]")
"7.00 to 8.00"
>>> result("Cc1c(C#Cc2cnc3ccc(N4CCOCC4)nn23)cccc1C(=O)Nc1cc(F)cc(C(F)(F)F)c1 [XS4-80]")
"7.00 to 8.00"
>>> result("Cc1c(C#Cc2cnc3ccc(N(C)CCN(C)C)nn23)cccc1C(=O)Nc1cc(Cl)cc(C(F)(F)F)c1 [XS3-134]")
"6.00 to 7.00"
>>> result("Cc1c(C#Cc2cnc3ccc(N4CCN(C)CC4)nn23)cccc1C(=O)Nc1cc(Cl)cc(C(F)(F)F)c1 [XS3-51]")
"6.00 to 7.00"
>>> result("Cc1c(C#Cc2cnc3ccc(N4CCN(C5COC5)CC4)nn23)cccc1C(=O)Nc1cc(Cl)cc(C(F)(F)F)c1 [XS3-138]")
"7.00 to 8.00"

----------
molecular target: BaF3-ETV6-NTRK3-F617L (Homo sapiens, UniProt Q16288, F617L); construct: constructed pCDNA3.1(+) plasmid vector carrying genes such as; fused on or other part: P41212 (Transcription factor ETV6); assay: Drug-resistant cell proliferation inhibition (CCK-8); details: 72 hours, read-out: drug-resistant cell viability IC50
Sequence (Q16288 whole entry F617L, the tested form may be a part): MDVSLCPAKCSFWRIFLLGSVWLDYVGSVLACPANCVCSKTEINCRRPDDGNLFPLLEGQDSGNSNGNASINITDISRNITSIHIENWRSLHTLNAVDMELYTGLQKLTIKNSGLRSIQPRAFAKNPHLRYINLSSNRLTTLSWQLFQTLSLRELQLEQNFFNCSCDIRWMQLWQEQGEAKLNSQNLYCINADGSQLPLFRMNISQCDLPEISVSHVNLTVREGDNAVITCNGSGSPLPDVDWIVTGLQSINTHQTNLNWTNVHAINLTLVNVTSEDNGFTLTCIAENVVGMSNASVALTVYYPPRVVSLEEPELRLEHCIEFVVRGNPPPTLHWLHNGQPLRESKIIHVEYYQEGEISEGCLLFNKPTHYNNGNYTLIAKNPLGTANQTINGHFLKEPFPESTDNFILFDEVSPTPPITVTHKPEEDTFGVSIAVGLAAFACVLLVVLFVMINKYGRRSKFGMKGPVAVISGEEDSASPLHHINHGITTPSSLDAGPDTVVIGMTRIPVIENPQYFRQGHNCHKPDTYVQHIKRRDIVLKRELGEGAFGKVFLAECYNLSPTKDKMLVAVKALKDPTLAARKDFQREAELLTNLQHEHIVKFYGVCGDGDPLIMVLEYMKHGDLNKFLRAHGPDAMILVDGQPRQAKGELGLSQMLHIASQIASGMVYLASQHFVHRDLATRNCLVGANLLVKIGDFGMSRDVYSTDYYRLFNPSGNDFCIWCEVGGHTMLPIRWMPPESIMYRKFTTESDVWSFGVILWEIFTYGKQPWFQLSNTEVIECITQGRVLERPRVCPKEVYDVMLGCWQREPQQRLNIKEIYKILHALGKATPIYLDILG
pIC50: −log10 of the molar value.
Measurement kind: pIC50

>>> result("Cc1c(C#Cc2cnc3ccc(N4CCC(O)CC4)nn23)cccc1C(=O)Nc1cc(Cl)cc(C(F)(F)F)c1")
"7.00 to 8.00"
>>> result("Cc1c(C#Cc2cnc3ccc(N4CCC(O)CC4)nn23)cccc1C(=O)Nc1cc(CN2CCN(C)CC2)cc(C(F)(F)F)c1")
"7.00 to 8.00"
>>> result("Cc1cn(-c2cc(NC(=O)c3cccc(C#Cc4cnc5ccc(N6CCC(O)CC6)nn45)c3C)cc(C(F)(F)F)c2)cn1")
"> 8.00"
>>> result("Cc1c(C#Cc2cnc3ccc(N4CCOCC4)nn23)cccc1C(=O)Nc1cc(CN2CCN(C)CC2)cc(C(F)(F)F)c1")
"7.00 to 8.00"

----------
target: RET (Homo sapiens); test: Kinase selectivity, Z'-LYTE
Sequence (P07949 29-1114, species assumed): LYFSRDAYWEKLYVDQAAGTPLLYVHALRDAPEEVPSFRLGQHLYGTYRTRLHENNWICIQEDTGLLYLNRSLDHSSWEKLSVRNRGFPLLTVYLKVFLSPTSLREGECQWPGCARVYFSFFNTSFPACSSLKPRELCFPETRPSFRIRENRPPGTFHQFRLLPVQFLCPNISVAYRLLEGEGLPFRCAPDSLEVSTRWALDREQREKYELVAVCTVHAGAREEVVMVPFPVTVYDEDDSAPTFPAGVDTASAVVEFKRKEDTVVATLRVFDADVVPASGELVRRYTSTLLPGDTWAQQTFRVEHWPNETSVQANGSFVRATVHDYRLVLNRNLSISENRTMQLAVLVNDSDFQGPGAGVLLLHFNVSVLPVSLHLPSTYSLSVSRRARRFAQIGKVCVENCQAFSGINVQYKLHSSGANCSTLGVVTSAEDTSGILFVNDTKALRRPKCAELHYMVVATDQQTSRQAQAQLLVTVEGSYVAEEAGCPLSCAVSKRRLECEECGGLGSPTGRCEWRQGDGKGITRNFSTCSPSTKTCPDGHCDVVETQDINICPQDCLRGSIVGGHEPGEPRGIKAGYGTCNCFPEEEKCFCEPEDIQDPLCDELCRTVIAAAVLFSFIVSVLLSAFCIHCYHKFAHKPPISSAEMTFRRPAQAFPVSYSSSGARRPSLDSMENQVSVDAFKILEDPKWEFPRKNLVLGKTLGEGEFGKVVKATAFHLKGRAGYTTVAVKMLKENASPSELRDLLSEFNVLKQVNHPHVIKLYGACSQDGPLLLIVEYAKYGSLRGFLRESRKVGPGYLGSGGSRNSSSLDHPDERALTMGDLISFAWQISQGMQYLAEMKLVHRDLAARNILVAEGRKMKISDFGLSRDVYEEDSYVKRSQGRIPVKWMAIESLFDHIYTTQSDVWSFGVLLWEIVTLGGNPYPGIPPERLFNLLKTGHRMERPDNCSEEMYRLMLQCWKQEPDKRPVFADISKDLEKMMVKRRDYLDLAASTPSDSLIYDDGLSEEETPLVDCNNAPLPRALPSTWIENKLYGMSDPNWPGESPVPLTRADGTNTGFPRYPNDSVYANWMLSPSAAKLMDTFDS
pIC50: −log10 of the molar value.
Measurement kind: pIC50

>>> recorded_number("Cc1ccc(C(=O)Nc2cc(Cl)cc(C(F)(F)F)c2)cc1C#Cc1cnc2ccc(N3CCC(O)CC3)nn12 [XS4-128, reference compound]")
7.97

----------
target: Bcr-Abl (Homo sapiens, UniProt P00519); assay: Kinase selectivity, Z'-LYTE
Sequence (P00519 242-493 limits assumed): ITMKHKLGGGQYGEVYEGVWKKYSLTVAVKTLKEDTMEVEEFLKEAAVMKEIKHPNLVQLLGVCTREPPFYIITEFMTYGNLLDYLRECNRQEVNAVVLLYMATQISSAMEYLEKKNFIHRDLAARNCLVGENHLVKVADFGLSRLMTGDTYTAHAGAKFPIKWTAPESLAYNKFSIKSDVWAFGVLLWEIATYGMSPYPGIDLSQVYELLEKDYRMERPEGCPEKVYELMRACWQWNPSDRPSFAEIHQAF
pIC50: −log10 of the molar value.
Measurement kind: pIC50

>>> recorded_number("Cc1ccc(C(=O)Nc2cc(Cl)cc(C(F)(F)F)c2)cc1C#Cc1cnc2ccc(N3CCC(O)CC3)nn12 [XS4-128, reference compound]")
6.89

----------
target: PDGFRB (Homo sapiens)
Sequence (P09619 33-1106, species assumed): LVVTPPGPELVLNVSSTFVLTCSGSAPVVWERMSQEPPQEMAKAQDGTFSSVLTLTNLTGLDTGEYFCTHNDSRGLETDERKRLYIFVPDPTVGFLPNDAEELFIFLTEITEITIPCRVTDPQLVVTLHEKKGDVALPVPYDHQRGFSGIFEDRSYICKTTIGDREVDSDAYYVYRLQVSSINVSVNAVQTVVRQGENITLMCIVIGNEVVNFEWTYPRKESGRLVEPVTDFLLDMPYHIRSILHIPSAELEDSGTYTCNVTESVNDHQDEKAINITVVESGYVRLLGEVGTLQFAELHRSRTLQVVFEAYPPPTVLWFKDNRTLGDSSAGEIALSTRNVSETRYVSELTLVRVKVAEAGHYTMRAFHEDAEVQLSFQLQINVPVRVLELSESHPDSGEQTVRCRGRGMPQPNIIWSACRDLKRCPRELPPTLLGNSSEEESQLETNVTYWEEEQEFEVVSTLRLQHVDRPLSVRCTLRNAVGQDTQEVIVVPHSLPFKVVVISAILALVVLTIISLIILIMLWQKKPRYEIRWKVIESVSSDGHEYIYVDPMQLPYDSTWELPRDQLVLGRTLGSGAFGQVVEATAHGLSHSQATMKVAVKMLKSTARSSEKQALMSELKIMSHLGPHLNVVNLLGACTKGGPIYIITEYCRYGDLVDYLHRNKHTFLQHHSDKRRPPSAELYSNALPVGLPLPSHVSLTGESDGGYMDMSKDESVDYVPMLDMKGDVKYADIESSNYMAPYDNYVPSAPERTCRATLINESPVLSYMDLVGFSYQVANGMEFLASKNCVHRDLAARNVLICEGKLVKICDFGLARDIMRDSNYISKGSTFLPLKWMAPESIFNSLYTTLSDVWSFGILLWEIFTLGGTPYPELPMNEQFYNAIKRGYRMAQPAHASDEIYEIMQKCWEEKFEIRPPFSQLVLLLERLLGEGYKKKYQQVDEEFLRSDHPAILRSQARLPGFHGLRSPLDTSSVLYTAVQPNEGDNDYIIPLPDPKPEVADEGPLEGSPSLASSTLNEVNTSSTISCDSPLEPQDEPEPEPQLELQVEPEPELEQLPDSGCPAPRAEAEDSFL
pIC50: −log10 of the molar value.
Measurement kind: pIC50

>>> recorded_number("Cc1ccc(C(=O)Nc2cc(Cl)cc(C(F)(F)F)c2)cc1C#Cc1cnc2ccc(N3CCC(O)CC3)nn12 [XS4-128, reference compound]")
6.92

----------
assay: Pharmacokinetic and oral bioavailability tests in SD rats; type: in vivo; settings: Sprague-Dawley (SD), rat, plasma, intravenous injection, 2.0 mg/kg
Measurement kind: AUC(0-inf)

>>> result("Cc1c(C#Cc2cnc3ccc(N4CCC(O)CC4)nn23)cccc1C(=O)Nc1cc(Cl)cc(C(F)(F)F)c1")
"549 µg·h/mL"

Values compiled from patent US11834454B2.
